Reference source for all entries: patent US11505811B2

Catalogue of Max. specific activity, OAA readings, one per entry.
protocol.summary: oxaloacetate reductase activity, NADH absorption at 340 nm
Format: biochemical
measurement.context: E. coli Mdh mutants; measured at 0.5 mM oxaloacetate
Method: Enzymatic assays: The reaction mixture contained 60 mM Hepes (pH 7), 50 mM potassium chloride, 5 mM MgCl2, 0.25 mM NADH, (optionally 5 mM fructose-1,6-bisphosphate) (all products from Sigma), and appropriate amounts of purified malate or lactate dehydrogenase or cell extract. […] The reactions were followed by the characteristic absorption of NADH at 340 nm (εNADH=6.22 mM^−1 cm^−1) in a microplate reader (BioRad 680XR).
Answer format: number, then unit.

INSERT INTO measurements (molecule, result_type, result) VALUES
  ('R81A D86S: E. coli malate dehydrogenase mutant, SEQ ID No. 1114 as printed (protein, UniProt P61889 1-312, looked up, variant R81A D86S) Malate dehydrogenase: MKVAVLGAAGGIGQALALLLKTQLPSGSELSLYDIAPVTPGVAVDLSHIPTAVKIKGFSGEDATPALEGADVVLISAGVAAKPGMSRSDLFNVNAGIVKNLVQQVAKTCPKACIGIITNPVNTTVAIAAEVLKKAGVYDKNKLFGVTTLDIIRSNTFVAELKGKQPGEVEVPVIGGHSGVTILPLLSQVPGVSFTEQEVADLTKRIQNAGTEVVEAKAGGGSATLSMGQAAARFGLSLVRALQGEQGVVECAYVEGDGQYARFFSQPLLLGKNGVEERKSIGTLSAFEQNALEGMLDTLKKDIALGEEFVNK', 'Max. specific activity, OAA', '0.67 µmol/mg/min'),
  ('R81A G179D D86S: E. coli malate dehydrogenase mutant, SEQ ID No. 118 (protein, listed as Escherichia coli) MKVAVLGAAGGIGQALALLLKTQLPSGSELSLYDIAPVTPGVAVDLSHIPTAVKIKGFSGEDATPALEGADVVLISAGVAAKPGMSRSDLFNVNAGIVKNLVQQVAKTCPKACIGIITNPVNTTVAIAAEVLKKAGVYDKNKLFGVTTLDIIRSNTFVAELKGKQPGEVEVPVIGGHSDVTILPLLSQVPGVSFTEQEVADLTKRIQNAGTEVVEAKAGGGSATLSMGQAAARFGLSLVRALQGEQGVVECAYVEGDGQYARFFSQPLLLGKNGVEERKSIGTLSAFEQNALEGMLDTLKKDIALGEEFVNK', 'Max. specific activity, OAA', '0.54 µmol/mg/min'),
  ('Ec-Mdh: (L)-malate dehydrogenase from Escherichia coli, SEQ ID NO: 2 (protein, listed as Escherichia coli) MKVAVLGAAGGIGQALALLLKTQLPSGSELSLYDIAPVTPGVAVDLSHIPTAVKIKGFSGEDATPALEGADVVLISAGVARKPGMDRSDLFNVNAGIVKNLVQQVAKTCPKACIGIITNPVNTTVAIAAEVLKKAGVYDKNKLFGVTTLDIIRSNTFVAELKGKQPGEVEVPVIGGHSGVTILPLLSQVPGVSFTEQEVADLTKRIQNAGTEVVEAKAGGGSATLSMGQAAARFGLSLVRALQGEQGVVECAYVEGDGQYARFFSQPLLLGKNGVEERKSIGTLSAFEQNALEGMLDTLKKDIALGEEFVNK', 'Max. specific activity, OAA', '95 µmol/mg/min');

Note: attention shifts to another entry.
Reported Max. specific activity, OAA ( R81A M85Q: E. coli malate dehydrogenase mutant, SEQ ID No. 104 (protein, listed as Escherichia coli) MKVAVLGAAGGIGQALALLLKTQLPSGSELSLYDIAPVTPGVAVDLSHIPTAVKIKGFSGEDATPALEGADVVLISAGVAAKPGQDRSDLFNVNAGIVKNLVQQVAKTCPKACIGIITNPVNTTVAIAAEVLKKAGVYDKNKLFGVTTLDIIRSNTFVAELKGKQPGEVEVPVIGGHSGVTILPLLSQVPGVSFTEQEVADLTKRIQNAGTEVVEAKAGGGSATLSMGQAAARFGLSLVRALQGEQGVVECAYVEGDGQYARFFSQPLLLGKNGVEERKSIGTLSAFEQNALEGMLDTLKKDIALGEEFVNK ) = 0.5 µmol/mg/min
